From: BindingDB's records for doi:10.1021/jm900194w

Test: Reversal of MRP1-mediated doxorubicin-resistance in human HeLa-T5 cells assessed as reduction of doxorubicin IC50 percent by half
Value kind: EC50

Which EC50 value belongs to Cc1onc2c1c(=O)n([C@H]1CCC[C@@H](CNC(=O)c3ccccc3)C1)c1cccc(Cl)c21 (racemic) ? 93 nM
